assay: Induction of mydriasis; conditions: Wiga, in vivo; rat; route PO; maximum pupil diameter >25 units over 1, 2 or 3 h post-administration; read-out: ED50 MYD Test 2

{"Molecule": "C[C@H]1CN(c2ccc(C(F)(F)F)c(Cl)c2)C(=O)c2c(C#Cc3ccc(N)nc3)cnn21 [compound 13]", "ED50": "> 40 mg/kg"}
{"Molecule": "C[C@H]1CN(c2ccc(C(F)(F)F)cc2)C(=O)c2c(C#Cc3ccc(N)nc3)cnn21 [compound 1]", "ED50": "> 40 mg/kg"}

---

assay: Induction of mydriasis; details: Wiga, in vivo; rat; route PO; pupil diameter >25 units 1 h post-administration; read-out: ED50 MYD Test 1
Measured Metric: ED50 at 1 h

{"Compound": "C[C@H]1CN(c2ccc(C(F)(F)F)cc2)C(=O)c2c(C#Cc3ccc(N)nc3)cnn21 [compound 1]", "Result Value": "> 10 mg/kg"}

---

molecular target: human mGlu2 receptor (Homo sapiens); experiment: [35S]GTPγS binding assay, negative allosteric modulation of mGluR2; settings: read-out: GTPγS - hmGluR2 anGT Emax
Sequence (Q14416 19-872): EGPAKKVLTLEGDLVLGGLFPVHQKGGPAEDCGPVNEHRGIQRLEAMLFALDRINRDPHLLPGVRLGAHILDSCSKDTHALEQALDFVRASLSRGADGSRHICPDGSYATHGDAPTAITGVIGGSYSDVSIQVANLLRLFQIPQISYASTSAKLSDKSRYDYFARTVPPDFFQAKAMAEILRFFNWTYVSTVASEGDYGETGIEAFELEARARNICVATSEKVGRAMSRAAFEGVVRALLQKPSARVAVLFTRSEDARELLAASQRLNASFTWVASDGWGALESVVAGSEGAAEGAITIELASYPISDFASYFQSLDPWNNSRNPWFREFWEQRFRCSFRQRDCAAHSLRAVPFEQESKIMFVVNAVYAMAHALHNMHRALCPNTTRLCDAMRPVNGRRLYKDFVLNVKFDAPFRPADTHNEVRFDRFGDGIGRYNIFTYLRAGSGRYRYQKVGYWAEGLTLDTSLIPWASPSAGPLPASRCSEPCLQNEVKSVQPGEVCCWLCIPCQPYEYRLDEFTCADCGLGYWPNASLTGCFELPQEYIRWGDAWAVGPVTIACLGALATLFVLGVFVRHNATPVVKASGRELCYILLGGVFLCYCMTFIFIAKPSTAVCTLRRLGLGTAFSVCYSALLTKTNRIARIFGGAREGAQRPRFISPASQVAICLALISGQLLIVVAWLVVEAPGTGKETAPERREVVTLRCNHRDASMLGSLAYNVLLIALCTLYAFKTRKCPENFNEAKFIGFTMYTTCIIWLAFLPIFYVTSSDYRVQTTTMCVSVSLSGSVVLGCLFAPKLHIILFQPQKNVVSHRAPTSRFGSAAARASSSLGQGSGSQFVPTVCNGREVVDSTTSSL
Measured Metric: Emax (%)

{"Given Smiles": "CNc1ccc(C#Cc2cnn3c2C(=O)N(c2ccc(C(F)(F)F)c(OC)n2)C[C@@H]3C)cn1", "Result Value": 106}
{"Given Smiles": "C[C@H]1CN(c2ccc(C(F)(F)F)cc2)C(=O)c2c(C#Cc3ccnc(N)c3)cnn21", "Result Value": 105}
{"Given Smiles": "C[C@H]1CN(c2ccc(C(F)(F)F)cc2)C(=O)c2c(C#Cc3cccc(S(=O)(=O)F)c3)cnn21", "Result Value": 110}
{"Given Smiles": "C[C@H]1CN(c2ccc(C(F)(F)F)c(Cl)c2)C(=O)c2c(C#Cc3cnc(N)cc3CO)cnn21", "Result Value": 106}
{"Given Smiles": "C[C@H]1CN(c2ccc(C(F)(F)F)cc2)C(=O)c2c(C#Cc3cncc(CF)c3)cnn21", "Result Value": 108}
{"Given Smiles": "CNc1ccc(C#Cc2cnn3c2C(=O)N(c2ccc(C(F)(F)F)c(Cl)n2)C[C@@H]3C)cn1", "Result Value": 111}
{"Given Smiles": "COCc1cc(N)ncc1C#Cc1cnn2c1C(=O)N(c1ccc(C(F)(F)F)cc1)C[C@@H]2C", "Result Value": 105}

---

target: human mGlu2 receptor (Homo sapiens); test: [35S]GTPγS binding assay, negative allosteric modulation of mGluR2;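 note: membranes from CHO cells expressing the receptor, compound with glutamate near EC80 (60 µM), 30 min preincubation then 30 min label uptake at 30 °C, percent of control glutamate response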

{"Compound": "C[C@H]1CN(c2ccc(C(F)(F)F)cc2)C(=O)c2c(C#Cc3ccnc(N)c3)cnn21 [compound 10]", "Target System": "human mGlu2 receptor (Homo sapiens)", "IC50, nM": 10}
{"Compound": "COc1ccc(N2C[C@H](C)n3ncc(C#Cc4ccc(N)nc4)c3C2=O)cc1Cl [compound 8]", "Target System": "human mGlu2 receptor (Homo sapiens)", "IC50, nM": 8.51}
{"Compound": "COc1nc(N2C[C@H](C)n3ncc(C#Cc4ccc(N)nc4)c3C2=O)ccc1C(F)(F)F [compound 33]", "Target System": "human mGlu2 receptor (Homo sapiens)", "IC50, nM": 2.51}
{"Compound": "C[C@H]1CN(c2ccc(C(F)(F)F)c(CF)n2)C(=O)c2c(C#Cc3ccc(N)nc3)cnn21 [compound 19]", "Target System": "human mGlu2 receptor (Homo sapiens)", "IC50, nM": 2.14}
{"Compound": "CNc1ccc(C#Cc2cnn3c2C(=O)N(c2ccc(Cl)c(Cl)c2)C[C@@H]3C)cn1 [compound 3]", "Target System": "human mGlu2 receptor (Homo sapiens)", "IC50, nM": 2.24}
{"Compound": "C[C@H]1CN(c2ccc(C(F)(F)F)cc2)C(=O)c2c(C#Cc3cnc(N)c(CF)c3)cnn21 [compound 21]", "Target System": "human mGlu2 receptor (Homo sapiens)", "IC50, nM": 41.7}
{"Compound": "C[C@H]1CN(c2ccc(C(F)(F)F)cc2)C(=O)c2c(C#Cc3ccccc3)cnn21 [compound 5]", "Target System": "human mGlu2 receptor (Homo sapiens)", "IC50, nM": 4.07}
{"Compound": "C[C@H]1CN(c2ccc(C(F)(F)F)cc2)C(=O)c2c(C#Cc3ccc(S(=O)(=O)F)cc3)cnn21 [compound 35]", "Target System": "human mGlu2 receptor (Homo sapiens)", "IC50, nM": 42.7}
